// values below are reported switch fluorescence ratio
Tested on: ATP;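 further: ATP exposure 15 min at 22 °C before imaging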
Assay: switch fluorescence ratio, 500 uM ATP over buffer (Cy3 cluster intensity, sum of 5 cycles each) (fold (ratio)); higher = stronger signal-on switching upon ATP binding; sequences stand for … in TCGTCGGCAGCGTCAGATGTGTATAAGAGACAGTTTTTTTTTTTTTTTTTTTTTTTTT…TC
Details: aptamer strand: ATP DNA aptamer (quencher-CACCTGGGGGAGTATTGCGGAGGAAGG + anchor), 100 nM annealed; ATP concentration: 500 uM
Answer as a number with no unit attached.

As a guide, the following entries are already answered.
SEQUENCE RECORD | MEASURED TARGET | REPORTED RESULT
GGTATTGGTA | ATP | 1.13
CGCAGTTCTT | ATP | 1.2
AGATTGAGCG | ATP | 1
GGTGTTGATC | ATP | 1.03

Find the recorded switch fluorescence ratio belonging to TTTTATAGAT and report it.
0.977

Find the recorded switch fluorescence ratio belonging to AATTATCATC and report it.
1.02

Find the recorded switch fluorescence ratio belonging to CGAAAGCGGC and report it.
1.23

Find the recorded switch fluorescence ratio belonging to GTTTTATTAG and report it.
0.951

Find the recorded switch fluorescence ratio belonging to TTTTTGGGCC and report it.
0.994

Find the recorded switch fluorescence ratio belonging to TTTGGGATTT and report it.
1.04

Find the recorded switch fluorescence ratio belonging to CTGTGAGTTA and report it.
0.97

Find the recorded switch fluorescence ratio belonging to TTATTTTTTT and report it.
1

Find the recorded switch fluorescence ratio belonging to TCTTAGAGGT and report it.
0.983

Find the recorded switch fluorescence ratio belonging to TTACGGCATG and report it.
1.03

Find the recorded switch fluorescence ratio belonging to TTATTGTACT and report it.
1.01

Find the recorded switch fluorescence ratio belonging to TTTGAGGTCG and report it.
1.06

Find the recorded switch fluorescence ratio belonging to TGGTGAAGGG and report it.
0.976

Find the recorded switch fluorescence ratio belonging to AAGGGTAGAT and report it.
1.01

Find the recorded switch fluorescence ratio belonging to CTTGACTGTG and report it.
1.03

Find the recorded switch fluorescence ratio belonging to GTTAAATGTG and report it.
0.972

Find the recorded switch fluorescence ratio belonging to AATTATTCGT and report it.
1.02

Find the recorded switch fluorescence ratio belonging to GTCTGAACGG and report it.
0.976

###

Tested on: ATP;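 further: ATP exposure 15 min at 22 °C before imaging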
Test: switch fluorescence ratio, 500 uM ATP over buffer (Cy3 cluster intensity, sum of 5 cycles each) (fold (ratio)); higher = stronger signal-on switching upon ATP binding; sequences stand for … in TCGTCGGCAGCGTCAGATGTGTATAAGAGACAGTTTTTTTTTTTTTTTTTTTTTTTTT…TC
Details: aptamer strand: ATP DNA aptamer (quencher-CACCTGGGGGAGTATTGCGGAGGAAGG + anchor), 100 nM annealed; ATP concentration: 500 uM
Label Met when switch fluorescence ratio is at or above 1; anything below gets Not met.

SEQUENCE RECORD | DISCRETE LABEL
TAAAAAATAT | Not met

Kindly review the next sequence as well.
Could you tell me if the measured switch fluorescence ratio of TTGCCCCGGC reaches 1 or more?
Met

###

System: ATP;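 further: ATP exposure 15 min at 22 °C before imaging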
Assay: switch fluorescence ratio, 500 uM ATP over buffer (Cy3 cluster intensity, sum of 5 cycles each) (fold (ratio)); higher = stronger signal-on switching upon ATP binding; sequences stand for … in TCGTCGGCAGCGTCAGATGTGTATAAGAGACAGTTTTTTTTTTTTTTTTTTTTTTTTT…TC
Settings: aptamer strand: ATP DNA aptamer (quencher-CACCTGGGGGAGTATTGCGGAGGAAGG + anchor), 100 nM annealed; ATP concentration: 500 uM
MEASUREMENT LABEL: switch fluorescence ratio
Answer as a number with no unit attached.

SEQUENCE RECORD | MEASURED TARGET | REPORTED RESULT
GAATCGGCAT | ATP | 1.02
TACGAGGTTT | ATP | 0.978

# ---- query sequence ----
Find the recorded switch fluorescence ratio belonging to ATTCCTAGTG and report it.
1.03

###

Test system: ATP;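 further: ATP exposure 15 min at 22 °C before imaging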
Assay: switch fluorescence ratio, 500 uM ATP over buffer (Cy3 cluster intensity, sum of 5 cycles each) (fold (ratio)); higher = stronger signal-on switching upon ATP binding; sequences stand for … in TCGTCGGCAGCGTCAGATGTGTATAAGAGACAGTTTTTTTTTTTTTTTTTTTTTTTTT…TC
Settings: aptamer strand: ATP DNA aptamer (quencher-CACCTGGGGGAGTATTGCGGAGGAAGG + anchor), 100 nM annealed; ATP concentration: 500 uM
Label TRUE when switch fluorescence ratio is at or above 1; anything below gets FALSE.

Consider the following illustrative entries.
SEQUENCE RECORD | MEASURED TARGET | DISCRETE LABEL
TCGTTTTTTA | ATP | TRUE
TCAGGGGCAG | ATP | TRUE
GGTCGCTTGG | ATP | TRUE
AGTATCACAG | ATP | FALSE

Could you tell me if the measured switch fluorescence ratio of AGAGTGGGCC reaches 1 or more?
FALSE

Could you tell me if the measured switch fluorescence ratio of GCAGCTAGTA reaches 1 or more?
TRUE

Could you tell me if the measured switch fluorescence ratio of CGCGATGTAC reaches 1 or more?
TRUE

Could you tell me if the measured switch fluorescence ratio of CATCGGGGGT reaches 1 or more?
TRUE

Could you tell me if the measured switch fluorescence ratio of TTAAGCATAG reaches 1 or more?
TRUE

Could you tell me if the measured switch fluorescence ratio of TTTCCGTTGA reaches 1 or more?
TRUE

Could you tell me if the measured switch fluorescence ratio of ATCCTTAAGG reaches 1 or more?
FALSE

Could you tell me if the measured switch fluorescence ratio of GCTATTGTTC reaches 1 or more?
FALSE

Could you tell me if the measured switch fluorescence ratio of TCAGAATTTT reaches 1 or more?
TRUE

Could you tell me if the measured switch fluorescence ratio of TGGGCTGGGG reaches 1 or more?
TRUE

Could you tell me if the measured switch fluorescence ratio of TCGTTCAATC reaches 1 or more?
TRUE

Could you tell me if the measured switch fluorescence ratio of TTTGGGTAGG reaches 1 or more?
TRUE

Could you tell me if the measured switch fluorescence ratio of TGACTTAGTG reaches 1 or more?
TRUE

Could you tell me if the measured switch fluorescence ratio of TGTGTGTGGA reaches 1 or more?
TRUE

Could you tell me if the measured switch fluorescence ratio of TAGGTGTCAT reaches 1 or more?
TRUE

###

System: ATP;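 further: ATP exposure 15 min at 22 °C before imaging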
Test: switch fluorescence ratio, 500 uM ATP over buffer (Cy3 cluster intensity, sum of 5 cycles each) (fold (ratio)); higher = stronger signal-on switching upon ATP binding; sequences stand for … in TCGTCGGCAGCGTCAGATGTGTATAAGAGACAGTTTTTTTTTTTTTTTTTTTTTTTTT…TC
Details: aptamer strand: ATP DNA aptamer (quencher-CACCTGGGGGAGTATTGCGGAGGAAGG + anchor), 100 nM annealed; ATP concentration: 500 uM
// values below are reported switch fluorescence ratio
Answer as a number with no unit attached.

SEQUENCE RECORD | switch fluorescence ratio
TAAGGAAGTT | 1.01
AAAAAGTGGT | 0.983

# ---- query sequence ----
Find the recorded switch fluorescence ratio belonging to TGTTGAGCTC and report it.
0.994

###

Tested on: ATP;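 further: ATP exposure 15 min at 22 °C before imaging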
Assay: switch fluorescence ratio, 500 uM ATP over buffer (Cy3 cluster intensity, sum of 5 cycles each) (fold (ratio)); higher = stronger signal-on switching upon ATP binding; sequences stand for … in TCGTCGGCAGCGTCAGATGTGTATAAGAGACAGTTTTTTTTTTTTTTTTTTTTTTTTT…TC
Details: aptamer strand: ATP DNA aptamer (quencher-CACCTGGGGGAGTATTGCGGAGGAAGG + anchor), 100 nM annealed; ATP concentration: 500 uM
// values below are reported switch fluorescence ratio
Answer as a number with no unit attached.

As a guide, the following entries are already answered.
SEQUENCE RECORD | REPORTED RESULT
GCGGGCACCA | 0.995
TGAATAGGAG | 1.01
GGAATCATTT | 0.972
TTTTTAAACT | 0.992
CACGTTATAG | 1.19

Find the recorded switch fluorescence ratio belonging to GGATGGGTGT and report it.
1.02

Find the recorded switch fluorescence ratio belonging to TCCTGTGAAC and report it.
1.04

Find the recorded switch fluorescence ratio belonging to CGTTAGTAAA and report it.
0.986

Find the recorded switch fluorescence ratio belonging to GAAAGTCTGT and report it.
1.07

Find the recorded switch fluorescence ratio belonging to GGAGGGTTAC and report it.
0.972

###

Test system: ATP;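 further: ATP exposure 15 min at 22 °C before imaging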
Experiment: switch fluorescence ratio, 500 uM ATP over buffer (Cy3 cluster intensity, sum of 5 cycles each) (fold (ratio)); higher = stronger signal-on switching upon ATP binding; sequences stand for … in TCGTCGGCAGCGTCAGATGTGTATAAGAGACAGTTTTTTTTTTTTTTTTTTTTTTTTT…TC
Details: aptamer strand: ATP DNA aptamer (quencher-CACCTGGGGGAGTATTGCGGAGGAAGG + anchor), 100 nM annealed; ATP concentration: 500 uM
MEASUREMENT LABEL: switch fluorescence ratio
Answer as a number with no unit attached.

As a guide, the following entries are already answered.
SEQUENCE RECORD | MEASURED TARGET | switch fluorescence ratio
ATCGGATTAT | ATP | 0.969
GCCACATTCA | ATP | 0.991
TTTGTCCCG | ATP | 1.01
ATTAAGGTCA | ATP | 1.06
GGTTATATGT | ATP | 1.02
GCCAGATGCG | ATP | 1.05

Find the recorded switch fluorescence ratio belonging to GAGTGGGTTA and report it.
1.03

Find the recorded switch fluorescence ratio belonging to AGACTTTCTT and report it.
1.04

Find the recorded switch fluorescence ratio belonging to GGAAATATCG and report it.
0.989
